src = patent US10028961B2

# studySystem: IDH1-R132H homodimer enzyme (Homo sapiens (Human), UniProt O75874, R132H)
# Sequence (O75874 whole entry R132H): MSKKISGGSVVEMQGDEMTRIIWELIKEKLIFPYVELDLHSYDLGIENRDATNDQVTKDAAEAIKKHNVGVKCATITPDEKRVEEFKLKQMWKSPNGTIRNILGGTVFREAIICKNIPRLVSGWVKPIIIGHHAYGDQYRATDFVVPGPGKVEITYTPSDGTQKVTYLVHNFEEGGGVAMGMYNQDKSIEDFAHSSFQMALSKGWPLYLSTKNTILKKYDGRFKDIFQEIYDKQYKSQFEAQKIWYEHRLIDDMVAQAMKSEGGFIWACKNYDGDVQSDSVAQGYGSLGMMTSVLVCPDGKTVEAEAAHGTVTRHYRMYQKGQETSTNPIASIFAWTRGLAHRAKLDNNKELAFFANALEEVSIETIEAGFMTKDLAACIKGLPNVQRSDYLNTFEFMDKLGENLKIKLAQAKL
# assayOverview: In vitro assay IDH1-R132H homodimer, NADPH depletion assay with NADPH/NADP preincubation
# testContext: 5 μM NADPH and 37.5 μM NADP
# Description: The following describes the experimental procedures that can be used to obtain data on columns 3 and 5 of Table 5. A test compound is prepared as 10 mM stock in DMSO and diluted to 50× final concentration in DMSO, for a 50 μl reaction mixture. IDH enzyme activity converting alpha-ketoglutarate to 2-hydroxyglutaric acid is measured using a NADPH depletion assay. […]
pIC50: −log10 of the molar value.
propertyName: pIC50

Worked cases, answers included:
Nc1ccc(F)c(-c2nc(Nc3cc(F)cc(F)c3)nc(NC3CCC(F)(F)CC3)n2)n1 ... 7.00 to 7.30
O=C1C[C@H](Nc2nc(NC3CCC(F)(F)C3)nc(-c3cccc(C(F)(F)F)n3)n2)CN1c1ccccn1 (some centres unmarked) ... 6.00 to 7.00
FC(F)c1csc(-c2nc(NC3CCC(F)(F)CC3)nc(NC3CCC(F)(F)CC3)n2)n1 ... 6.00 to 7.00
N#CC1(c2cc(Nc3nc(N[C@@H]4CCC(F)(F)C4)nc(-n4ccc(C(F)(F)F)n4)n3)ccn2)CC1 ... > 7.30

Which pIC50 value is on record for FC(F)c1cccc(-c2nc(NC3CCC(F)(F)CC3)nc(NC3CCC(F)(F)CC3)n2)n1 ?
6.00 to 7.00

Check CC(C)(O)CNc1nc(Nc2cc(F)cc(Cl)c2)nc(-c2cccc(C(C)(F)F)n2)n1 too.
6.00 to 7.00

Check FC1(F)CCC(Nc2nc(NC3CC4(C3)CC(F)(F)C4)nc(-c3cccc(C(F)(F)F)n3)n2)C1 (centres unmarked) too.
6.00 to 7.00

Check Fc1cc(F)cc(Nc2nc(NC3CCC(F)(F)C3)nc(-c3cccc(C(F)(F)F)n3)n2)c1 (centres unmarked) too.
> 7.30

Check FC1(F)CCCC1Nc1nc(NC2CCCC2(F)F)nc(-c2cccc(Cl)n2)n1 (centres unmarked) too.
> 7.30

---

# studySystem: IDH1 R132C (Homo sapiens (Human), UniProt O75874, R132C)
# Sequence (O75874 whole entry R132C): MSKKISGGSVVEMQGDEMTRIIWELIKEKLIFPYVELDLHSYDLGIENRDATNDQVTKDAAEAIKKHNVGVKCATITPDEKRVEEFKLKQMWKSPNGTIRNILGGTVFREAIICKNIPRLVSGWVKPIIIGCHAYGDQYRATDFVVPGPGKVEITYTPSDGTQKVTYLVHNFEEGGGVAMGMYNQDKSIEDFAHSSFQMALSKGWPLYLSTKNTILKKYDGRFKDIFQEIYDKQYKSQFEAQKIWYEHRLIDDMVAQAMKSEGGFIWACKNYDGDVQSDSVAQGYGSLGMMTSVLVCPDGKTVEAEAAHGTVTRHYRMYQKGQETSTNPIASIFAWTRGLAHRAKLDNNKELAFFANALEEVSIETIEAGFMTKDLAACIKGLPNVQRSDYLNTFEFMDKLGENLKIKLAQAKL
# assayOverview: In vitro assay IDH1 R132C homodimer, NADPH depletion assay
pIC50: −log10 of the molar value.
propertyName: pIC50

Worked cases, answers included:
FC1(F)CCC(Nc2nc(NC3CCC(F)(F)C3)nc(-c3cccc(C(F)(F)F)n3)n2)C1 (stereo not shown) [Compound 31] ... > 7.30
COCC(C)Nc1nc(N[C@H](C)C2CC2)nc(-c2cccc(C(F)(F)F)n2)n1 (stereo partly shown) [Compound 44] ... < 6.00
FC(F)(F)c1cccc(-c2nc(NC3CCC3)nc(NC3CCC3)n2)n1 [Compound 9] ... 6.00 to 7.00
CCN(CC)c1nc(N[C@H](C)C2CC2)nc(-c2cccc(Cl)n2)n1 [Compound 46] ... < 6.00
C[C@@H](Nc1nc(NC2(c3ccccc3)CC2)nc(-c2cccc(C(F)(F)F)n2)n1)C1CC1 [Compound 30] ... 6.00 to 7.00

We next turn to a different compound, shown below.
Which pIC50 value is on record for C[C@@H](Nc1nc(N[C@H](C)C2CC2)nc(-c2cccc(N3CCC3)n2)n1)C1CC1 [Compound 51] ?
< 6.00

---

# System: HT1080 cells
# assayOverview: Cellular assay for IDH1m R132C inhibitors, 2-HG by LC-MS in HT1080 cells
# Format: cell-based
# testContext: Homo sapiens, HT-1080
pIC50: −log10 of the molar value.
propertyName: pIC50

Worked cases, answers included:
CC(Nc1nc(Nc2ccnc(C3(C#N)CC3)c2)nc(-n2ccc(C(F)(F)F)n2)n1)C(F)(F)F (stereo not shown) ... 7.00 to 7.30
FC1(F)CCC(Nc2nc(NC3Cc4cccnc4C3)nc(-c3cccc(C(F)(F)F)n3)n2)C1 (stereo not shown) ... > 7.30

Which pIC50 value is on record for CC(Nc1nc(Nc2cc(F)cc(F)c2)nc(-n2ccc(C(F)(F)F)n2)n1)C(F)(F)F (stereo not shown) ?
6.00 to 7.00

Check N#CC1(c2cc(Nc3nc(NC4CC(F)(F)C4)nc(-c4cccc(C(F)(F)F)n4)n3)ccn2)CC1 too.
> 7.30

Check Fc1cc(F)cc(Nc2nc(NC3CCC(F)(F)C3)nc(-c3nc(C(F)(F)F)cs3)n2)c1 (stereo not shown) too.
6.00 to 7.00

Check CC(F)(F)c1cccc(-c2nc(NC3CCC(F)(F)CC3)nc(NC3CCC(F)(F)CC3)n2)n1 too.
6.00 to 7.00

Check N#CC1(c2cc(Nc3nc(NC4CC5(C4)CC(F)(F)C5)nc(-c4cccc(C(F)(F)F)n4)n3)ccn2)CC1 too.
6.00 to 7.00

Check FC1(F)CCC(Nc2nc(NC3CCC(F)(F)CC3)nc(-c3cncc(Cl)n3)n2)CC1 too.
6.00 to 7.00

Check FC1(F)CCC(Nc2nc(NC3CCN(Cc4ccccc4)C3)nc(-c3cccc(C(F)(F)F)n3)n2)C1 (stereo not shown) too.
< 6.00

Check CC(F)(F)c1cc(Nc2nc(NC3CCC(F)(F)C3)nc(-c3cccc(C(F)(F)F)n3)n2)ccn1 (stereo not shown) too.
6.00 to 7.00

---

# studySystem: IDH1 wt/IDH1 R132H heterodimer (Homo sapiens (Human), UniProt O75874, R132H)
# Sequence (O75874 whole entry R132H): as the sequence (O75874 whole entry R132C) above, with C132H counted along it
# Sequence (O75874 whole entry, stated change not applied): as the sequence (O75874 whole entry R132C) above, with C132R counted along it
# assayOverview: In vitro assay for IDH1m R132H inhibitors, IDH1 wt/IDH1 R132H heterodimer, NADPH depletion (diaphorase/resazurin)
# Type: biochemical
# testContext: IDH1 wt/IDH1 R132H heterodimer, 300 μM NADP (saturated); read-out: IDH1 wt/R132H NADPH/NADP IC50 saturated
propertyName: IC50

FC(F)c1ccnc(-c2nc(NC3CCC(F)(F)C3)nc(NC3CCC(F)(F)C3)n2)n1 (centres unmarked) ... 100 to 1000 nM
CC(F)(F)c1cncc(-c2nc(NC3CCC(F)(F)CC3)nc(NC3CCC(F)(F)CC3)n2)n1 ... 50 to 100 nM
N#CC1(c2cc(Nc3nc(NC4CC(F)(F)C4)nc(-c4cncc(C(F)(F)F)n4)n3)ccn2)CC1 ... < 50 nM
CC(F)(F)c1cncc(-c2nc(NC3CC(F)(F)C3)nc(NC3CC(F)(F)C3)n2)n1 ... < 50 nM
FC1(F)CC[C@H](Nc2nc(Nc3ccnc(C(F)(F)F)c3)nc(-c3cncc(C(F)(F)F)n3)n2)C1 ... < 50 nM
C[C@H](Nc1nc(Nc2ccnc(C3(C#N)CC3)c2)nc(-c2cccc(C(C)(F)F)n2)n1)C(F)(F)F ... < 50 nM

Which IC50 value is on record for FC(F)(F)c1cc(Nc2nc(NCC3CC3)nc(-c3cncc(C(F)(F)F)n3)n2)ccn1 ?
100 to 1000 nM

Check FC(F)(F)c1cc(Nc2nc(NCC3CC3(F)F)nc(-c3cccc(C(F)(F)F)n3)n2)ccn1 (centres unmarked) too.
50 to 100 nM

---

# studySystem: IDH1-R132 homodimer enzyme (R132H) (Homo sapiens (Human), UniProt O75874, R132H)
# Sequence (O75874 whole entry R132H): as the sequence (O75874 whole entry R132C) above, with C132H counted along it
# assayOverview: In vitro assay IDH1-R132H homodimer, NADPH depletion assay
pIC50: −log10 of the molar value.
Recorded pIC50 for the following molecules

Worked cases, answers included:
C[C@@H](Nc1nc(NC2CCOC2)nc(-c2cccc(C(F)(F)F)n2)n1)C1CC1 (stereo partly shown) [Compound 38] ... 7.00 to 7.30
C[C@@H](Nc1nc(NC2(c3ccccc3)CC2)nc(-c2cccc(C(F)(F)F)n2)n1)C1CC1 [Compound 30] ... 7.00 to 7.30
C[C@@H](Nc1nc(N[C@H](C)C2CC2)nc(-c2cccc(CO)c2)n1)C1CC1 [Compound 16] ... < 6.00
C[C@@H](Nc1nc(N[C@H](C)C2CC2)nc(-c2cccc(N3CCC3)n2)n1)C1CC1 [Compound 51] ... < 6.00

Which pIC50 value is on record for CC(C)C(C)Nc1nc(NC(C)C(C)C)nc(-c2cccc(C(F)(F)F)n2)n1 (stereo not shown) [Compound 13] ?
> 7.30

Check FC(F)(F)c1cccc(-c2nc(NCC3CC3)nc(NCC3CC3)n2)n1 [Compound 1] too.
< 6.00

Check C[C@@H](Nc1nc(NCc2ccccc2)nc(-c2cccc(C(F)(F)F)n2)n1)C1CC1 [Compound 21] too.
< 6.00

Check CC(C)(CO)Nc1nc(Nc2ccnc(C(C)(F)F)c2)nc(-c2cccc(C(F)(F)F)n2)n1 [Compound 49] too.
< 6.00

---

# studySystem: IDH1 wt/IDH1 R132C heterodimer (Homo sapiens (Human), UniProt O75874, R132C)
# Sequence (O75874 whole entry R132C): as the sequence (O75874 whole entry R132C) above
# Sequence (O75874 whole entry, stated change not applied): as the sequence (O75874 whole entry R132C) above, with C132R counted along it
# assayOverview: In vitro assay for IDH1m R132C inhibitors, IDH1 wt/IDH1 R132C heterodimer, NADPH depletion (diaphorase/resazurin)
# testContext: NADPH/NADP
propertyName: IC50

CS(=O)(=O)N1CCC(Nc2nc(NC3CCC(F)(F)CC3)nc(-c3cccc(C(F)(F)F)n3)n2)CC1 [Compound 266] ... 100 to 1000 nM
CS(=O)(=O)N1CCC(Nc2nc(NC3CCC(F)(F)C3)nc(-c3cccc(C(F)(F)F)n3)n2)C1 (centres unmarked) [Compound 56] ... < 50 nM
FC1(F)CCC(Nc2nc(NC3CC4(C3)CC(F)(F)C4)nc(-c3cccc(C(F)(F)F)n3)n2)C1 (centres unmarked) [Compound 191] ... < 50 nM
FC1(F)CCC(Nc2nc(NC3CCC(F)(F)C3)nc(-c3nccc(C(F)(F)F)n3)n2)C1 (centres unmarked) [Compound 237] ... < 50 nM

So what IC50 did CC(C)(C)OC(=O)N1CCC(Nc2nc(NC3CCC(F)(F)C3)nc(-c3cccc(C(F)(F)F)n3)n2)C1 (centres unmarked) [Compound 90] get with IDH1 wt/IDH1 R132C heterodimer (Homo sapiens (Human), UniProt O75874, R132C)?
50 to 100 nM
